Tested on: Enterovirus A71
method.summary: Antiviral activity against human enterovirus 71
Assay type: functional, organism-based
experimental.setup: Enterovirus A
readout.type: EC50 (µM)
One number for each entry, in µM.

Entry OC[C@H]1O[C@@H](n2cnc3c(NCc4ccccc4)ncnc32)[C@H](O)[C@@H]1O [N6-BENZYLADENOSINE] needs its EC50 filled in; supply it.
0.28

----------
method.summary: Cytotoxicity against african green monkey Vero cells by MTS assay
Format: toxicity, cell-based
experimental.setup: chlorocebus sabaeus
Please go through the items and note down their CC50.

# count of solved cases: 5
COC(=O)[C@H](CCSC[C@H]1O[C@@H](n2cnc3c(NCc4cccc(Cl)c4)ncnc32)[C@H](O)[C@@H]1O)NC(=O)C(F)(F)F    > 100 µM
OC[C@H]1O[C@@H](n2cnc3c(NCc4cccc(S(F)(F)(F)(F)F)c4)ncnc32)[C@H](O)[C@@H]1O    > 100 µM
CC(Nc1ncnc2c1ncn2[C@@H]1O[C@H](CO)[C@@H](O)[C@H]1O)c1cccc(Cl)c1 (stereo partly specified)    > 100 µM
Cc1cccc(CNc2ncnc3c2ncn3[C@@H]2O[C@H](CO)[C@@H](O)[C@H]2O)c1    > 100 µM
CSC[C@H]1O[C@@H](n2cnc3c(NCc4cccc(C)c4)ncnc32)[C@H](O)[C@@H]1O    > 50 µM

Next up:
Quote CC50 reported for OC[C@H]1O[C@@H](n2ccc3c(NCc4cccc(C(F)(F)F)c4)ncnc32)[C@H](O)[C@@H]1O please.
> 100 µM
